System: A498 renal
Experiment: NCI-60 one-dose screen, 48 h
Conditions: 10 µM unless noted
The panel holds about 83,000 compounds, 20% with a hit somewhere; the sample as a whole holds those more often. Activity calls are given as the source filed them. How the source made its calls: active means growth percent below 10; inactive means the rest.
Classes to choose from: active, inactive

Here's what some known entries look like.
[
  {
    "Compound": "O=C(COc1ccc(-c2nc3cc(Cl)c(Cl)cc3[nH]2)cc1)N=Nc1c(O)[nH]c2ccc(Cl)cc12",
    "Label Value": "inactive"
  },
  {
    "Compound": "COC(=O)CC[C@@H]1O[C@@H](c2cccc(C(F)(F)F)c2)[C@@H](O)[C@H]1O",
    "Label Value": "inactive"
  },
  {
    "Compound": "Cc1ccc2c(n1)C(=O)C(Br)=C(CC(C)C)C2=O",
    "Label Value": "inactive"
  },
  {
    "Compound": "O=S(=O)(Nc1ccc(Cl)c(C(F)(F)F)c1)c1ccc(-c2cnc(C3CC3)o2)cc1",
    "Label Value": "active"
  },
  {
    "Compound": "C=C1C(=O)O[C@H]2[C@H]1CC/C(COC(=O)C(=O)c1cn(C)c3ccc(Cl)cc13)=C\\CC[C@@]1(C)O[C@@H]21",
    "Label Value": "active"
  },
  {
    "Compound": "COC1=CC(c2ccc[nH]2)=N/C1=C\\c1[nH]c(C)c(C)c1CCC(=O)OCc1ccccc1",
    "Label Value": "active"
  },
  {
    "Compound": "C#CCOc1ccc2ncnc(Nc3ccc(NC(=O)C=C)cc3)c2c1",
    "Label Value": "inactive"
  },
  {
    "Compound": "O=C1/C(=C/c2cccc(F)c2)CN(C(=O)C(Cl)Cl)C/C1=C\\c1cccc(F)c1",
    "Label Value": "active"
  },
  {
    "Compound": "Oc1ccc(Cl)cc1/C=N\\NC(=S)N/N=C/c1cc(Cl)ccc1O",
    "Label Value": "inactive"
  },
  {
    "Compound": "COc1ccc2c(c1)c(-c1nc(-c3c[nH]c4ccncc34)cs1)cn2C",
    "Label Value": "inactive"
  }
]

stdin: What did the test return for CN(C)CCNC(=O)c1cc2c3cc(Cl)ccc3[nH]c2c2ncccc12 ?
stdout: inactive

stdin: What did the test return for COc1ccc(Nc2nc(-c3cc(O)c(C)c(C)c3O)cs2)cc1 ?
stdout: inactive

stdin: What did the test return for Cc1nc2sc(C(=O)Nc3ccc(Br)cc3)c(N)c2cc1C(O)c1ccccc1 (stereo not given) ?
stdout: inactive

stdin: What did the test return for Nc1nc2ccccc2c2c1S(=O)(=O)c1ccc(Cl)cc1C2=O ?
stdout: inactive

stdin: What did the test return for COCCn1cc(-c2csc(-c3cn(C)c4ccc(Br)cc34)n2)c2cccnc21 ?
stdout: inactive

stdin: What did the test return for Cn1c(=O)cc2c3c(c(NCCCO)ccc31)C(=O)c1ccccc1-2 ?
stdout: inactive

stdin: What did the test return for Nc1nc2ccccc2c2c(=O)c3cccc(Cl)c3sc12 ?
stdout: inactive

stdin: What did the test return for O=C(Cn1cc(CSc2nc3ccccc3o2)nn1)Nc1ccc(F)cc1F ?
stdout: inactive

stdin: What did the test return for CCCCCN1C(=O)/C(=c2\sc3n(c2=O)C2C(NN=3)N(CC)C(=O)N2CC)c2ccccc21 (stereo not given) ?
stdout: active

stdin: What did the test return for CS(=O)(=O)Nc1cc(-c2ccc3ncnc(Nc4ccc5c(cnn5Cc5cccc(F)c5)c4)c3c2)cnc1Cl ?
stdout: active

stdin: What did the test return for O=C(Nn1c2c(sc1=NC1CC1)C(=O)c1ccccc1C2=O)c1cc2ccc1CCc1ccc(cc1)CC2 ?
stdout: inactive

stdin: What did the test return for COC(=O)/C=C1/SC(=Nc2ccc(C(F)(F)F)cc2)N(CCc2c[nH]c3ccc(O)cc23)C1=O ?
stdout: active

stdin: What did the test return for CCc1ccccc1-n1c(-c2ccc(OC)cc2)cc(-c2ccc(OC)cc2)c(C#N)c1=O ?
stdout: inactive

stdin: What did the test return for CCOC(=O)C1=C(C)NC(=O)NC1c1c(Cl)n(CCCl)c2ccccc12 (stereo not given) ?
stdout: inactive

stdin: What did the test return for COc1c(B(O)O)cccc1-c1nc2c(F)cc3[nH]ncc3c2c2c1CCCC2 ?
stdout: active

stdin: What did the test return for C#COc1cccc(Nc2c(C#N)cnc3ncc(NC(=O)CCl)cc23)c1 ?
stdout: inactive

stdin: What did the test return for O=S(=O)(Nc1cc(Cl)ccc1Cl)c1ccc(-c2cnc(C3CC3)o2)cc1 ?
stdout: active

stdin: What did the test return for COc1ccc(C2=C(Nc3ccc(C(=O)Nc4ccccc4)cc3)C(=O)N(C)C2=O)cc1 ?
stdout: inactive

stdin: What did the test return for Cc1[nH]c(C(=O)Nc2ccc(C(=O)N3CCN(c4cc5c(cc4F)c(=O)c(C(=O)O)cn5C4CC4)CC3)cc2OC(C)C)c(Cl)c1Cl ?
stdout: inactive

stdin: What did the test return for O=C(O)c1cn(C2CC2)c2cc(N3CCN(Cc4ccc5ccccc5c4O)CC3)c(F)cc2c1=O ?
stdout: active
